# ΔTm at 1000 µM values compiled below
# Subject of test: UniProtKB Q5QQ46
# Test: biochemical
# Type: binding
# Details: read-out: Tb Ino1 Tm Shift [˚C]
State just the number; it will be interpreted in °C.

In [3]: df
Out[3]:
                                   compound  obs_value
0  Oc1ccc(F)cc1 [compound 29, 4‐fluorophenol]       0.23
1  Cc1ccc(C(=O)O)c(N)c1 [compound 196, 2‐amino‐4‐methylbenzoic acid]        1.1
2  Nc1cc2ccccc2cn1 [compound 153, isoquinolin‐3‐amine]       0.27

Param readout = ΔTm at 1000 µM; param system = UniProtKB Q5QQ46; param query = Cn1ccc(C(F)(F)F)n1 [compound 181, 1‐methyl‐3‐(trifluoromethyl)‐1H‐pyrazole] ; response: value 0.11

---

# Subject of test: TbINO1 (Trypanosoma brucei brucei, UniProt Q5QQ46)
# Sequence (Q5QQ46 whole entry): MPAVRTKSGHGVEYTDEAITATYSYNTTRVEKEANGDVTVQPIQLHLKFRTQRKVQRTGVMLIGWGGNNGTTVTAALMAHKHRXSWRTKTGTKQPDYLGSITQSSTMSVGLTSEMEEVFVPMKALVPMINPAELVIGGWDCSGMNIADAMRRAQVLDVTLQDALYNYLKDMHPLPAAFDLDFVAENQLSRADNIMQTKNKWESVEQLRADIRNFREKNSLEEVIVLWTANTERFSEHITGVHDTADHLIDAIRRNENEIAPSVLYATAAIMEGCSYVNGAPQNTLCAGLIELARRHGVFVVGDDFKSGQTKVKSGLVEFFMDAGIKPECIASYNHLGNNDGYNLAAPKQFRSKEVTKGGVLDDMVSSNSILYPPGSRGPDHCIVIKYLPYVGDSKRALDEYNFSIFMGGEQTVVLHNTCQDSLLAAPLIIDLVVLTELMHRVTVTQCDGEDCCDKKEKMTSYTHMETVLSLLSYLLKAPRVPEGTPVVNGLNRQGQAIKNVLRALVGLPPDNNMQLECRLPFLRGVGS
# Test: biochemical
# Format: binding
# Details: read-out: Tb Ino1 Tm Shift [˚C]
Classification field: enter criterion met for ΔTm at 1000 µM values not below 0.3 °C, criterion not met for values below it.

Reference set, count: 5
>>> df
                                   compound     discrete_label
0  CC(C)(C)OC(=O)Nc1ccsc1 [compound 619, tert‐butyl N‐(3‐thienyl)carbamate]  criterion not met
1  O=C(O)C1CCCCO1 (stereo not drawn) [compound 93, tetrahydropyran‐2‐carboxylic acid]      criterion met
2          CCC1CCC(N)CC1 (stereo not drawn)      criterion met
3                      OCc1cccc(N2CCOCC2)c1  criterion not met
4                           N#Cc1c(N)cccc1F  criterion not met

Does the compound "N#Cc1ccnc(N2CCSCC2)c1" have recorded ΔTm at 1000 µM that is 0.3 °C or more? criterion met

---

# System: A549 cells
# Test: Cytotoxicity against A549 cells, Alamar Blue
# Assay type: cell-based
# Details: Homo sapiens, A549, 65 h; Supplementary Table 1; compound 0.5 mM; percentage of controls (n=1)
Measurement label: viability at 500 µM (%)
Write the number in % without appending the unit.

These solved cases illustrate the format of a correct answer.
In [3]: df
Out[3]:
                                   compound  unit_text  obs_value
0  Nc1cccc(-c2cnco2)c1 [compound 267, 3‐(1,3‐oxazol‐5‐yl)aniline]          %       79.8
1  O=C(O)C12CC3CC(CC(O)(C3)C1)C2 [compound 597, 3‐hydroxyadamantane‐1‐carboxylic acid]          %       79.4
2  OCC1CCc2ccccc2O1 (stereo not shown) [compound 299, 3,4‐dihydro‐2H‐chromen‐2‐ylmethanol]          %       80.3

Next compound, please.
# lookup: viability at 500 µM of Nc1cccc(-n2cccc2)c1 [compound 251, 3‐(1H‐pyrrol‐1‐yl)aniline] 79.8

---

# Subject of test: TbINO1 (Trypanosoma brucei brucei, UniProt Q5QQ46)
# Test: biochemical
# Type: binding
# Details: read-out: Tb Ino1 Tm Shift [˚C]
# ΔTm at 1000 µM listing for each entry below
Quick reminder: number only, in °C, skip the unit.

Consider the following illustrative entries.
>>> df
                                   compound  unit_text  obs_value
0  O=C(O)C12CC3CC(CC(O)(C3)C1)C2 [compound 597, 3‐hydroxyadamantane‐1‐carboxylic acid]         °C       0.29
1  O=C(O)CCc1ccco1 [compound 131, 3‐(2‐furyl)propanoic acid]         °C       1.22

I would be grateful if you could share the reported ΔTm at 1000 µM for CNCc1ccncc1 [compound 56, N‐methyl‐N‐(4‐pyridinylmethyl)amine] . 0.01
